Where do these numbers come from? They come from patent US11578069B2.

- Study system: α4β1 integrin (Homo sapiens, UniProt P05556+P13612)
- Construct: monitoring the capture of α4β1 expressing cells; endogenous in cells; host or cells: Jurkat
- Sequence (P13612 34-1032): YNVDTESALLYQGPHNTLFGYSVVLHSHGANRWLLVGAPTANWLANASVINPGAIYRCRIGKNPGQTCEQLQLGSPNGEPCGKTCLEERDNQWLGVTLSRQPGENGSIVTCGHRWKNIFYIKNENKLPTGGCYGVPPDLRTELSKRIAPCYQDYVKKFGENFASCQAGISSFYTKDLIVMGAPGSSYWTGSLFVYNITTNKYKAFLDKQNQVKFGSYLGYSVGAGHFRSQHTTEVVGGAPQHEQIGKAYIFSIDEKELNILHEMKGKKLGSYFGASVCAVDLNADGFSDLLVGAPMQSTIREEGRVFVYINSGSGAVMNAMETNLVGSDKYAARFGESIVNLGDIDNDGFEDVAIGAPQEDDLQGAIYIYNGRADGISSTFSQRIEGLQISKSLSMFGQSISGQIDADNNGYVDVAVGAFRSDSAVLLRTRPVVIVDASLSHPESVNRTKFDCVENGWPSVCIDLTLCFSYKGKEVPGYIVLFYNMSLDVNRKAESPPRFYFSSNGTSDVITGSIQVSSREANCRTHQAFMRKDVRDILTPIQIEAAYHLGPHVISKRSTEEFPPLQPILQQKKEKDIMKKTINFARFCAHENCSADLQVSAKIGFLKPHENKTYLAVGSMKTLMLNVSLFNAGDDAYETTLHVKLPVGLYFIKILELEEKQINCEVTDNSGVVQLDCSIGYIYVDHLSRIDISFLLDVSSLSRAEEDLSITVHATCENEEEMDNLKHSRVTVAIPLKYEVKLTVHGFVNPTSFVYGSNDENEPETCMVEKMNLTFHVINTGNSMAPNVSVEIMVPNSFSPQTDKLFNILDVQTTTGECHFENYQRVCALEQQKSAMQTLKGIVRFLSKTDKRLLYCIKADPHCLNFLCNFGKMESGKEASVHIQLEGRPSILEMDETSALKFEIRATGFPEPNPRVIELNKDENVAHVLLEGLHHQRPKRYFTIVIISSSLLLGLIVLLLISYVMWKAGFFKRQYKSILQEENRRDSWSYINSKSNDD
- Sequence (P05556 21-798): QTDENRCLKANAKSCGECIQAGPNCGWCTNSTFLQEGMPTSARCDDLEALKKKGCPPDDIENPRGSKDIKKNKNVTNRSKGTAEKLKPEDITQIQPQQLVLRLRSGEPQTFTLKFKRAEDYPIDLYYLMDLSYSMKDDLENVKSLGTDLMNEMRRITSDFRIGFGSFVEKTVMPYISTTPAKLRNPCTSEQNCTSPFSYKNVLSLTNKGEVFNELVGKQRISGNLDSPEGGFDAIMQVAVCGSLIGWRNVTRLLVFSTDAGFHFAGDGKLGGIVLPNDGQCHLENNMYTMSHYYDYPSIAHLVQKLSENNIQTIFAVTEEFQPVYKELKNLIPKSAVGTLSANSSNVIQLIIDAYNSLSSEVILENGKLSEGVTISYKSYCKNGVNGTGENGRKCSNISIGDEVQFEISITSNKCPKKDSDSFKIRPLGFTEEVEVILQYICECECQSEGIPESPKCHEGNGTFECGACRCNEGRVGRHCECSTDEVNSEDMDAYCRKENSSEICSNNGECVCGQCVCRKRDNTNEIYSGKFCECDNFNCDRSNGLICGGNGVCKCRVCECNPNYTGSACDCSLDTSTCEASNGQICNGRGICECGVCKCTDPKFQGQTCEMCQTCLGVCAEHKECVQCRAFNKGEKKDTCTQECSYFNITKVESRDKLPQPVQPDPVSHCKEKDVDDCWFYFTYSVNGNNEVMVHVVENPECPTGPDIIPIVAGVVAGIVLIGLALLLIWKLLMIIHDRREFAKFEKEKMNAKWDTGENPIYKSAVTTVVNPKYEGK
- Method: α4β1 Cell Capture Assay
- Type: cell-based
- Condition info: capture of α4β1 expressing Jurkat cells on VCAM-1 extracellular domain-coated plate; Table 2
In plain terms, low EC50, meaning strictly below 2 nM, gives 1, and everything else gives 0.

{"Compound": "CN(C)c1ccc2c(c1)c(=O)n(-c1ccc(C[C@H](NC(=O)c3c(F)cc(N4CCOC[C@@H]4C(F)(F)F)cc3F)C(=O)O)cc1)c(=O)n2C", "Assigned category": 0}
{"Compound": "Cc1cc(N2CCOC[C@@H]2C(F)(F)F)cc(F)c1C(=O)N[C@@H](Cc1cc(F)c(-n2c(=O)c3ccncc3n(C)c2=O)c(F)c1)C(=O)O", "Assigned category": 0}
{"Compound": "COc1cc(C[C@H](NC(=O)c2c(F)cc(N3CCOC[C@@H]3C(F)(F)F)cc2F)C(=O)O)ccc1-n1c(=O)c2ccncc2n(C)c1=O", "Assigned category": 0}
{"Compound": "Cc1cc(N2CCOC[C@@H]2C(F)(F)F)cc(F)c1C(=O)N[C@@H](Cc1ccc(-n2c(=O)c3ccncc3n(C)c2=O)c(F)c1)C(=O)O", "Assigned category": 1}
{"Compound": "CC[C@@H](Nc1cc(F)c(C(=O)N[C@@H](Cc2ccc(-n3c(=O)c4cc(N(C)C)ccc4n(C)c3=O)cc2)C(=O)O)c(F)c1)C(F)(F)F", "Assigned category": 0}
{"Compound": "Cc1cc(N2CCOC[C@@H]2C(F)(F)F)cc(F)c1C(=O)N[C@@H](Cc1ccc(-n2c(=O)c3ccncc3n(C)c2=O)c(OC(F)(F)F)c1)C(=O)O (atropisomer, axis not shown) [Example 92]", "Assigned category": 1}

----------
- Study system: α4β1 integrin (Homo sapiens, UniProt P05556+P13612)
- Construct: monitoring the capture of α4β1 expressing cells; endogenous in cells; host or cells: Jurkat
- Method: α4β1 Cell Capture Assay
- Type: cell-based
- Condition info: capture of α4β1 expressing Jurkat cells on VCAM-1 extracellular domain-coated plate; Table 1
Listed here are compounds together with their documented EC50.

{"Compound": "Cc1c(C(F)(F)F)cn(C)c(=O)c1-c1ccc(C[C@H](NC(=O)c2c(F)cc(N3CCOC[C@@H]3C(F)(F)F)cc2F)C(=O)O)cc1 [Example 4]", "EC50 / nM": 63.7}
{"Compound": "Cc1cc(N2CCOC[C@@H]2C(F)(F)F)cc(F)c1C(=O)N[C@@H](Cc1ccc(-n2c(=O)c3c(n(C)c2=O)CCOC3)nc1)C(=O)O [Example 68]", "EC50 / nM": 14.9}
{"Compound": "CC[C@@H](Nc1cc(F)c(C(=O)N[C@@H](Cc2ccc(-n3c(=O)c4ccncc4n(C)c3=O)nc2)C(=O)O)c(F)c1F)C(F)(F)F [Example 17]", "EC50 / nM": 58.9}
{"Compound": "Cn1c2c(c(=O)n(-c3ccc(C[C@H](NC(=O)c4c(F)cc(N5CCOC[C@@H]5C(F)(F)F)cc4F)C(=O)O)cc3)c1=O)CCOC2 [Example 61]", "EC50 / nM": 11.5}
{"Compound": "Cn1c(=O)n(-c2ccc(C[C@H](NC(=O)c3c(F)cc(N4CCOC[C@@H]4C(F)(F)F)cc3F)C(=O)O)cn2)c(=O)c2ccncc21 [Example 13]", "EC50 / nM": 38.9}
{"Compound": "Cc1cc(N2CCOC[C@@H]2C(F)(F)F)cc(F)c1C(=O)N[C@@H](Cc1ccc(-n2c(=O)c3ccncc3n(C)c2=O)cn1)C(=O)O [Example 23]", "EC50 / nM": 9.8}

----------
- Study system: α4β1 integrin (Homo sapiens, UniProt P05556+P13612)
- Construct: monitoring the capture of α4β1 expressing cells; endogenous in cells; host or cells: Jurkat
- Method: α4β1 Cell Capture Assay
- Format: cell-based
- Condition info: capture of α4β1 expressing Jurkat cells on VCAM-1 extracellular domain-coated plate; Table 1

{"Smiles structure": "Cc1cc(N2CCOC[C@@H]2C(F)(F)F)cc(F)c1C(=O)N[C@@H](Cc1ccc(-n2c(=O)c3ccncc3n(C)c2=O)cc1)C(=O)O", "Study system": "α4β1 integrin (Homo sapiens, UniProt P05556+P13612)", "Readout unit": "nM", "EC50": 3.4}
{"Smiles structure": "Cc1cc(C[C@H](NC(=O)c2c(C)cc(N3CCOC[C@@H]3C(F)(F)F)cc2F)C(=O)O)ccc1-c1c(C(F)(F)F)cc(C)n(C)c1=O", "Study system": "α4β1 integrin (Homo sapiens, UniProt P05556+P13612)", "Readout unit": "nM", "EC50": 16.6}
{"Smiles structure": "Cn1c(=O)n(-c2ccc(C[C@H](NC(=O)c3c(F)cc(N4CCOC[C@@H]4C(F)(F)F)cc3Cl)C(=O)O)cn2)c(=O)c2ccncc21", "Study system": "α4β1 integrin (Homo sapiens, UniProt P05556+P13612)", "Readout unit": "nM", "EC50": 3.4}
{"Smiles structure": "Cc1cc(N2CCOC[C@@H]2CC(F)F)cc(F)c1C(=O)N[C@@H](Cc1ccc(-n2c(=O)c3c(n(C)c2=O)COC3)cc1)C(=O)O", "Study system": "α4β1 integrin (Homo sapiens, UniProt P05556+P13612)", "Readout unit": "nM", "EC50": 2.4}
{"Smiles structure": "Cc1cc(N2CCOC[C@@H]2C(F)(F)F)cc(F)c1C(=O)N[C@@H](Cc1ccc(-n2c(=O)c3c(n(C)c2=O)CCOC3)cc1)C(=O)O", "Study system": "α4β1 integrin (Homo sapiens, UniProt P05556+P13612)", "Readout unit": "nM", "EC50": 2.9}
{"Smiles structure": "CC[C@@H](N(c1cc(F)c(C(=O)N[C@@H](Cc2ccc(-n3c(=O)c4ccncc4n(C)c3=O)nc2)C(=O)O)c(F)c1)C1CC1)C(F)(F)F", "Study system": "α4β1 integrin (Homo sapiens, UniProt P05556+P13612)", "Readout unit": "nM", "EC50": 127}

----------
- Study system: α4β1 integrin (Homo sapiens, UniProt P05556+P13612)
- Construct: monitoring the capture of α4β1 expressing cells; endogenous in cells; host or cells: Jurkat
- Method: α4β1 Cell Capture Assay
- Format: cell-based
- Condition info: capture of α4β1 expressing Jurkat cells on VCAM-1 extracellular domain-coated plate; Table 1
Readout label: EC50 (µM)

{"Smiles structure": "CC[C@@H](Nc1cc(F)c(C(=O)N[C@@H](Cc2ccc(-c3c(C(F)(F)F)cc(C)n(C)c3=O)cc2)C(=O)O)c(F)c1)C(F)(F)F", "Study system": "α4β1 integrin (Homo sapiens, UniProt P05556+P13612)", "Readout label": "EC50", "Value observed": 0.0103}
{"Smiles structure": "Cc1cc(C(F)(F)F)c(-c2ccc(C[C@H](NC(=O)c3c(F)cc(N4CCOC[C@@H]4C(F)(F)F)cc3F)C(=O)O)cc2F)c(=O)n1C", "Study system": "α4β1 integrin (Homo sapiens, UniProt P05556+P13612)", "Readout label": "EC50", "Value observed": 0.0099}
{"Smiles structure": "Cc1cc(N2CCOC[C@@H]2C(F)(F)F)cc(F)c1C(=O)N[C@@H](Cc1ccc(-n2c(=O)c3c(n(C)c2=O)COC3)cc1)C(=O)O", "Study system": "α4β1 integrin (Homo sapiens, UniProt P05556+P13612)", "Readout label": "EC50", "Value observed": 0.0048}
{"Smiles structure": "CC[C@@H](Nc1cc(F)c(C(=O)N[C@@H](Cc2ccc(-c3c(C(F)(F)F)cc(=O)n(C)c3C)cc2)C(=O)O)c(F)c1)C(F)(F)F", "Study system": "α4β1 integrin (Homo sapiens, UniProt P05556+P13612)", "Readout label": "EC50", "Value observed": 0.905}
{"Smiles structure": "Cc1cc(N2CCOC[C@@H]2C(F)(F)F)cc(F)c1C(=O)N[C@@H](Cc1ccc(-n2c(=O)c3ccncc3n(C)c2=O)nc1)C(=O)O", "Study system": "α4β1 integrin (Homo sapiens, UniProt P05556+P13612)", "Readout label": "EC50", "Value observed": 0.0106}
{"Smiles structure": "COc1cc(C[C@H](NC(=O)c2c(C)cc(N3CCOC[C@@H]3C(F)(F)F)cc2F)C(=O)O)ccc1-n1c(=O)c2ccncc2n(C)c1=O", "Study system": "α4β1 integrin (Homo sapiens, UniProt P05556+P13612)", "Readout label": "EC50", "Value observed": 0.0086}
{"Smiles structure": "CC[C@@H](Nc1cc(C)c(C(=O)N[C@@H](Cc2ccc(-n3c(=O)c4ccncc4n(C)c3=O)nc2)C(=O)O)c(F)c1)C(F)(F)F", "Study system": "α4β1 integrin (Homo sapiens, UniProt P05556+P13612)", "Readout label": "EC50", "Value observed": 0.0301}
{"Smiles structure": "Cc1cc(C(F)(F)F)c(-c2ccc(C[C@H](NC(=O)c3c(F)cc(N4CCOC[C@@H]4C(F)(F)F)cc3F)C(=O)O)cc2)c(=O)n1C", "Study system": "α4β1 integrin (Homo sapiens, UniProt P05556+P13612)", "Readout label": "EC50", "Value observed": 0.0185}
